Taken from ChEMBL document CHEMBL5120931.

Assay: Half life in Sprague-Dawley rat at 10 mg/kg, po by LC-MS/MS analysis
Type: ADME, organism-based
Conditions: in vivo
Each entry below carries its recorded half-life.

{"columns": ["given.smiles", "result.units", "half-life"],
 "data": [
  ["CC(=O)N1CCN([C@H]2CCC[C@@H](NC(=O)c3cc4c(F)ccc(C)c4[nH]3)C2)CC1", "h", 3.8],
  ["CC(=O)N1CCN(c2cccc(NC(=O)c3cc4c(F)ccc(C)c4[nH]3)c2)CC1", "h", 2.3],
  ["Cc1ccc(F)c2cc(C(=O)N[C@@H]3CCC[C@H](N4CCN5C(=O)CC[C@H]5C4)C3)[nH]c12", "h", 2.7]
]}
